Source listed as PubChem BioAssay (EPA / NIEHS).

testSummary: CEETOX_H295R_PROG: CeeTox H295R High-throughput Steroidogenesis Assay for Progesterone (PROG) (AID 2283442)
measurementConditions: actives raise or lower the signal
Activity calls are given as the source filed them. Rule for the calls: active = hit-call score of the fitted dose curve at least 0.9, where 1 is the maximum; inactive = score below 0.9.
Hi! Could you answer with just one of these? active, inactive

>  <compound>
CCCCCCCC1CCC(=O)O1 (centres undefined)

>  <classLabel>
inactive

$$$$
>  <compound>
C=CCc1cc(S(=O)(=O)c2ccc(O)c(CC=C)c2)ccc1O

>  <classLabel>
active

$$$$

Consider the record given below.
# input Short answer needed: outcome of this test for `C[C@@H](Oc1ccc(CNC(=O)c2cccnc2Oc2ccc3c(c2)OCO3)c(F)c1)C(=O)O` ?
# output inactive
